Target: T1, CRBN, Q96SW2;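 also: pooled lentiviral library of zinc finger degron-EGFP fusions in mCherry-positive Jurkat cells, FACS-sorted after compound exposure, with degron abundance counted by next-generation sequencing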
T1 chain: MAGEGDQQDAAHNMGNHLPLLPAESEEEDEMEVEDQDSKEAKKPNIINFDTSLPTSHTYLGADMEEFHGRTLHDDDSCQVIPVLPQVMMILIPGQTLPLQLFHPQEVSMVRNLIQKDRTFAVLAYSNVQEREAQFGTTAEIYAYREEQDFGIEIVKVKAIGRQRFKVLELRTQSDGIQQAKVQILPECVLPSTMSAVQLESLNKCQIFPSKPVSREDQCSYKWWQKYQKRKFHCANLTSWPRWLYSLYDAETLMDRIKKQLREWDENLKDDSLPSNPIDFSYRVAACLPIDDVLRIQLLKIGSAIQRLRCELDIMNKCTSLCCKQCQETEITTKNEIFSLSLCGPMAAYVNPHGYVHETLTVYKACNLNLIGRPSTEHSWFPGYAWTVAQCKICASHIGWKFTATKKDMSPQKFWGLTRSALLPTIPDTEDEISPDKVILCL
Experiment: log2 fold change of degron read counts, EGFP-low vs EGFP+ sorted cells (limma voom), compound-induced degradation; higher = more compound-induced degradation of the degron-EGFP fusion; degrons are variants of IKZF1/3 zinc finger 2; compound dose not given here
Conditions: Jurkat; 18 h; compound: thalidomide
Over roughly 8,300 sequences, “log2 fold change of degron read counts, EGFP-low vs EGFP+ sorted cells (limma voom), compound-induced degradation” has its median near -1.1; the highest 2% begin near 3.2. Only a selection was taken, and the highest values are over-represented in it overall.
Response key: 1 means log2 fold change of degron read counts >= 0.7; 0 means log2 fold change of degron read counts < 0.7.

Look over these answered cases.
sequence	class.assignment
FLCNQCGHSFTQKGNLLRHIKL [46F_47L_49N_50Q_52G_53H_54S_55F_67L_, Q9UKT9]	0
FICNICGAPFTQKGNLLRHIKL [46F_47I_49N_50I_52G_53A_54P_55F_67L_, Q9UKT9]	1
FQCNICGAKFTQKGNLLRHIKL [46F_47Q_49N_50I_52G_53A_54K_55F_67L_, Q9UKT9]	1

Say whether FQCPICGAKFTQKGNLLRHIKL [46F_47Q_49P_50I_52G_53A_54K_55F_67L_, Q9UKT9] shows log2 fold change of degron read counts of 0.7 or more. 1

Say whether FRCNICGAPFTQKGNLLRHIKL [46F_47R_49N_50I_52G_53A_54P_55F_67L_, Q9UKT9] shows log2 fold change of degron read counts of 0.7 or more. 1

Say whether FVCNQCGAPFTQKGNLLRHIKL [46F_47V_49N_50Q_52G_53A_54P_55F_67L_, Q9UKT9] shows log2 fold change of degron read counts of 0.7 or more. 0

Values from the supplement of paper PMC12645437
